details: human, plasma
ENDPOINT LABEL: half-life

smiles_data=CC(C)C[C@@H]1NC(=O)[C@H](CC(N)=O)NC(=O)[C@H](CO)NC(=O)[C@H](Cc2cnc[nH]2)NC(=O)[C@H](CCC(=O)O)NC(=O)[C@H](CC(C)C)NC(=O)[C@H](Cc2cnc[nH]2)NC(=O)[C@@H]2CSSC[C@H](NC(=O)CN)C(=O)N[C@@H](CSSC[C@@H](C(N)=O)NC1=O)C(=O)N[C@@H](CO)C(=O)N[C@@H](CC(N)=O)C(=O)N1CCC[C@H]1C(=O)N[C@@H](C(C)C)C(=O)N2 value_reported="~16 h"

====

molecular target: UniProt:P0C1U8; details: isolated enzyme glu c, pH 8
Sequence (P0C1U8 69-336 limits assumed): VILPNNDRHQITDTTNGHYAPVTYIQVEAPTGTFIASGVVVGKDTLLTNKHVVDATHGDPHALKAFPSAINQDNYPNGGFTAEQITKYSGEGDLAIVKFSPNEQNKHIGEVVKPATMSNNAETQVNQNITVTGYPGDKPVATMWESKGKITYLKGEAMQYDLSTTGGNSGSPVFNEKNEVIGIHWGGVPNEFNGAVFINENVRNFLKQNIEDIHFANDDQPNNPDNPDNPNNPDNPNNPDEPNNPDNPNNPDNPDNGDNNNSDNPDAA
ENDPOINT LABEL: half-life

smiles_data=CC(C)C[C@@H]1NC(=O)[C@H](CC(N)=O)NC(=O)[C@H](CO)NC(=O)[C@H](Cc2cnc[nH]2)NC(=O)[C@H](CCC(=O)O)NC(=O)[C@H](CC(C)C)NC(=O)[C@H](Cc2cnc[nH]2)NC(=O)[C@@H]2CSSC[C@H](NC(=O)CN)C(=O)N[C@@H](CSSC[C@@H](C(N)=O)NC1=O)C(=O)N[C@@H](CO)C(=O)N[C@@H](CC(N)=O)C(=O)N1CCC[C@H]1C(=O)N[C@@H](C(C)C)C(=O)N2 target_entity=UniProt:P0C1U8 endpoint_label=half-life value_reported="~10 h"
